- test target: erythrocytes infected with P. falciparum field isolate 9605
- assay explanation: flow cytometry, staining of IEs
test readout: % parasite recognition (%)
Your answer is read as %, so omit the unit and give the number.

INPUT: Quick one: % parasite recognition for MGD55 (antibody) VH: QVQLQESGPGLVKPSGTLSLTCTVSGGSISAYKWWSWVRQAPGKGLEWIGQVYHNGNTNYNPSLKGRVAMSVDKSKNRFSLRLASVTAADTAVYYCATISPLRPQSDTDDLPRPSISAEPGTVIPLGSHVTFVCRGPIGVQTFRLERESRSLYSDTEDVSQVSPFASEARFRIDSVSEGNAGPYRCIYYKDRKWSDQSDYLELLVKGEDVTWALPQSQLAPRACPQEELNISTDIFSMNVWGKGTTVTVSS VL: AIRMTQSPASLSASIGDRVTITCRTSQDVGNYLDWYQQKPGKAPKLLIHGASTLQTGVPSRFSGSGAGTDFTLNITCLQSGDFAMYYCQQYYSSPPGFGQGTRLEIK ?
OUTPUT: 37.2
